biological target: Human HER3, endogenous, on human cancer cell lines (SK-Br-3, MCF7, BT-474) (human, UniProt P21860 20-1342); assay: cell-based or functional assay
Sequence (P21860 20-1342): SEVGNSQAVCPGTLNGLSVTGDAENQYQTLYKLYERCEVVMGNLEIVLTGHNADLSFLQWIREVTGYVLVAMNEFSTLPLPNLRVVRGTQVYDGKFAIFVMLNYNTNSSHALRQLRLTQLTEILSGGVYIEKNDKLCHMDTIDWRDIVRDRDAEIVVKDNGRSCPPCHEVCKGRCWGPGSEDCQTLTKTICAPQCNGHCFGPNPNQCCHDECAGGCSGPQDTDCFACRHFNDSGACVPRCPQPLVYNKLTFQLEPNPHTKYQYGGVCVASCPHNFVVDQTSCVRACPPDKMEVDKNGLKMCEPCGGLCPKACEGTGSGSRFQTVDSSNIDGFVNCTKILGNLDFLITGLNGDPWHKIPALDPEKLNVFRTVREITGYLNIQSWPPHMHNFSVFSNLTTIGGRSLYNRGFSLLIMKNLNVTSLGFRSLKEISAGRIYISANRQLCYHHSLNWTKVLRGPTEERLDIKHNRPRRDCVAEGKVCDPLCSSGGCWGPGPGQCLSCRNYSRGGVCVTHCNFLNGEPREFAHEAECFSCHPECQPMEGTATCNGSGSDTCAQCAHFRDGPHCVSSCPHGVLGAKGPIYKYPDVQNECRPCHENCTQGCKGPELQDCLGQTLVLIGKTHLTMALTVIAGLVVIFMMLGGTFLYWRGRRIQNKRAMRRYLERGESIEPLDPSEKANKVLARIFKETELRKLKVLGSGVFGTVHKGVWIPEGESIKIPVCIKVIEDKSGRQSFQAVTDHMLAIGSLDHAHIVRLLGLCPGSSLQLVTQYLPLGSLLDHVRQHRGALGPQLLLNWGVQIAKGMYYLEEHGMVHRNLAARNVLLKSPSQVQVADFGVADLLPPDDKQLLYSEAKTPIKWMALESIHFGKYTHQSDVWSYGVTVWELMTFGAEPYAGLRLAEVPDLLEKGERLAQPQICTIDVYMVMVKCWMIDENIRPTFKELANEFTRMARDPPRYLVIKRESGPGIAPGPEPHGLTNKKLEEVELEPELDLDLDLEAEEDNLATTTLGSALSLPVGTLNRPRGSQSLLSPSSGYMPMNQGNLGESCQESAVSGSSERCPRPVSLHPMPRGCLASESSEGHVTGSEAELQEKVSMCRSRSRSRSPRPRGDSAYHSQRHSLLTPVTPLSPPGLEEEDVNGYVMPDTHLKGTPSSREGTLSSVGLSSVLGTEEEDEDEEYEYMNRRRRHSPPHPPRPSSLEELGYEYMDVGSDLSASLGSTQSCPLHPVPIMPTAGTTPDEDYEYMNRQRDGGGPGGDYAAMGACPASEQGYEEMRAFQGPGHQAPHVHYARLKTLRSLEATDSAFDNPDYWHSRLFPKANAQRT
Catalogue of MCF7 pAkt (S473) % inhibition values
Measure: MCF7 pAkt (S473) % inhibition (%)

binder="MOR13765 (antibody, human IgG1, kappa, V domains shown, tested as IgG) VH: QVQLVQSGAEVKKPGESLKISCKGSGYSFTGSWVAWVRQMPGKGLEWMGIIYPGTSDTIYSPSFQGQVTISADKSISTAYLQWSSLKASDTAMYYCARVHIIQPPSAWSYNAMDVWGQGTLVTVSS VL: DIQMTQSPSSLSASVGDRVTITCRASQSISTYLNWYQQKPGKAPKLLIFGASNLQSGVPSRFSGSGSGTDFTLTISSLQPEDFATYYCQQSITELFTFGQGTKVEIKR" measure="MCF7 pAkt (S473) % inhibition" measurement_unit=% reading=71
binder="MOR12616 (antibody, human IgG1, kappa, V domains shown, tested as IgG) VH: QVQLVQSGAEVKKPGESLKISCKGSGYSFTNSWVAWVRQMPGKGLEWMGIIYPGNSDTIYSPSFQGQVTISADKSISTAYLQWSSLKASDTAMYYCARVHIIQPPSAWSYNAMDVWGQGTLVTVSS VL: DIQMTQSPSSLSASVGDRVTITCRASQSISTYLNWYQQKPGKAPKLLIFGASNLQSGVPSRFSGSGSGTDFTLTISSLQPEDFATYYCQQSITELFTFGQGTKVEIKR" measure="MCF7 pAkt (S473) % inhibition" measurement_unit=% reading=80
binder="MOR13766 (antibody, human IgG1, kappa, V domains shown, tested as IgG) VH: QVQLVQSGAEVKKPGESLKISCKGSGYSFTTTWVAWVRQMPGKGLEWMGIIYPGSSDTIYSPSFQGQVTISADKSISTAYLQWSSLKASDTAMYYCARVHIIQPPSAWSYNAMDVWGQGTLVTVSS VL: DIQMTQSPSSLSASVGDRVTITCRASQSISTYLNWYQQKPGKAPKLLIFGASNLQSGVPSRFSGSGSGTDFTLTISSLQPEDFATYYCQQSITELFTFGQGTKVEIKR" measure="MCF7 pAkt (S473) % inhibition" measurement_unit=% reading=67

Source listed as patent US20130273029A1.
